This section presents compounds with their documented bioavailability values.
Experiment: in vivo
Settings: Sprague-Dawley, rat, po
Description: Oral bioavailability in portal vein cannulated Sprague-Dawley rat model
metric-name: bioavailability (%)

compound: Cc1ncoc1-c1nnc(SCCCN2CC3CCN(c4ccc(C(F)(F)F)cc4F)C3C2)n1C (stereo in doubt; 8b)
metric-name: bioavailability
relation: =
assay-value: 73
//
compound: Cn1c(SCCCN2CC3CCN(c4ccc(C(F)(F)F)cc4)C3C2)nnc1-c1cc[nH]c(=O)c1 (stereo in doubt; 55b)
metric-name: bioavailability
relation: =
assay-value: 3
//
compound: Cn1c(SCCCN2CC3CCN(c4ccccc4)C3C2)nnc1C1CCOCC1 (stereo in doubt; 62a)
metric-name: bioavailability
relation: <
assay-value: 1
